Each item that follows carries a reported cAMP production, hGluc-R EC50 (pM).
# subject of test: human glucagon receptor (human, UniProt P47871)
# experiment description: cell-based or functional assay
Starred links: 1 amine or outer side, 2 acyl side, 3 side chain; linkers in the order of their positions; H or OH if unused. Non-standard residues stand in square brackets, D forms with d. Groups on a side chain read outwards from the residue. Primed or numbered codes have the meaning given here. No end group written: not given here. *: point of attachment. C18 diacid = O=C(O)CCCCCCCCCCCCCCCCC(=O)*; Dip = N[C@H](C(=O)O)C(c1ccccc1)c1ccccc1; γGlu = O=C(O)[C@H](CCC(=O)[*:2])N[*:1]; Stearoyl = CCCCCCCCCCCCCCCCCC(=O)*; Palmitoyl = CCCCCCCCCCCCCCCC(=O)*; αMeF = C[C@](N)(Cc1ccccc1)C(=O)O; (PEG)2 = polyethylene glycol 2; PEG2′ = polyethylene glycol 2; αMeS = C[C@](N)(CO)C(=O)O; Dodecyl = CCCCCCCCCCCC*; PEG2 = NCCOCCOCCC(=O)O; AEEA = NCCOCCOCC(=O)O; Aib = CC(C)(N)C(=O)O

{"binder": "HSQGS[αMeF]TSDVSK[Aib]LDSK([(PEG)2-(PEG)2-γGlu-γGlu-Palmitoyl])AAQD[αMeF]VQ[Aib]IIE-NH2 [Peptide 99]", "unit text": "pM", "cAMP production, hGluc-R EC50 (pM)": 33.2}
{"binder": "H[Aib]QGTFTSDVSK[αMeF]LDSK([AEEA-AEEA-γGlu-C18 diacid])RAQDFVQWLL[Aib]TE-OH (not fully specified) [Peptide 150]", "unit text": "pM", "cAMP production, hGluc-R EC50 (pM)": 355}
{"binder": "HSQGS[αMeF]TSDVSK[Dip]LDSK([(PEG)2-(PEG)2-γGlu-γGlu-Stearoyl])AAQD[αMeF]VQ[Dip]LEA-NH2 [Peptide 55]", "unit text": "pM", "cAMP production, hGluc-R EC50 (pM)": 19.1}
{"binder": "H[αMeS]QGS[αMeF]TSDVSKILDSK([PEG2′-PEG2′-γGlu-Stearoyl])AAQD[αMeF]VQ[Aib]IINT-NH2 [Peptide 133]", "unit text": "pM", "cAMP production, hGluc-R EC50 (pM)": 30}
{"binder": "HSQGS[αMeF]TSDVSK[Dip]LDSK([(PEG)2-(PEG)2-γGlu-γGlu-Dodecyl])AAQD[αMeF]VE[Aib]IINT-NH2 [Peptide 62]", "unit text": "pM", "cAMP production, hGluc-R EC50 (pM)": 15.2}
{"binder": "HSQGS[αMeF]TSDVSK[Dip]LDSK([PEG2′-PEG2′-γGlu-γGlu-Palmitoyl])AAQD[αMeF]VE[Aib]IINT-NH2 [Peptide 64]", "unit text": "pM", "cAMP production, hGluc-R EC50 (pM)": 3.06}
{"binder": "HSQGS[αMeF]TSDVSK[Dip]LDSK([(PEG)2-γGlu-(PEG)2-γGlu-Stearoyl])AAQD[αMeF]VE[Aib]IINT-NH2 [Peptide 61]", "unit text": "pM", "cAMP production, hGluc-R EC50 (pM)": 9.55}
{"binder": "H[Aib]HGS[αMeF]TSDVSK[αMeF]LDSK([AEEA-AEEA-γGlu-C18 diacid])AAQDFVQ[Aib]IANT-NH2 [Peptide 11]", "unit text": "pM", "cAMP production, hGluc-R EC50 (pM)": 118}
{"binder": "HSQGS[αMeF]TSDVSK[Dip]LDSK([PEG2-PEG2-γGlu-γGlu-C18 diacid])AAQD[αMeF]VE[Aib]IINT-NH2 [Peptide 65]", "unit text": "pM", "cAMP production, hGluc-R EC50 (pM)": 2060}
